For each entry below, report its MNTC at 24 h value.
# method summary: Cytotoxicity against C57BL/6 mouse BMDM cells assessed as LDH release after 24 hrs
# Assay type: cell-based
# details: bone marrow-derived macrophages (BMDM cells)
One number for each entry, in nM.

Sample records with MNTC at 24 h:
| compound | MNTC at 24 h (nM) |
| --- | --- |
| COC(=O)[C@]12CCC(C)(C)C[C@H]1[C@H]1C(=O)C=C3[C@@]4(C)C=C(C#N)C(=O)C(C)(C)[C@@H]4CC[C@@]3(C)[C@]1(C)CC2 | 500 |
| C#CC1(C)C=CC(=O)C(C#N)=C1 (centres undefined) | 500 |
| NC(=O)Nc1sc(-c2ccc(F)cc2)cc1C(N)=O | 500 |

Shift focus to the following entry.
Entry C#C[C@]12C=C(C#N)C(=O)C=C1[C@@]1(C)C=C(C#N)C(=O)C(C)(C)[C@@H]1CC2 (racemic) ; MNTC at 24 h = 100
